Data origin, for the record: patent US20130029981A1

Test system: Pseudomonas aeruginosa PA14
Assay: Static peg assay for prevention of biofilm formation (Calgary device, crystal violet)
Format: cell-based
Conditions: 25° C., Table 16; read-out: P. aeruginosa IC50 (biofilm formation)
Description: Evaluation of the biofilm inhibitory activity of some substituted 2-amino-1H-imidazoles of the invention was carried out by growing up biofilms of S. Typhimurium ATCC14028 or SL1344 or Pseudomonas aeruginosa PA14 in the presence of different concentrations (1/2 dilution series) of biofilm inhibitors, by using the Calgary biofilm device. […] The absorbance of the resolubilized stain at 570 nm is a measure of the amount of biofilm formed. […]
Record form. Attribute: pIC50. Fill in for each entry.
Give bare numbers, as −log10 of the molar value.

Answered examples (5):
| compound | pIC50 |
| --- | --- |
| CCCCCCCCCCN1c2nccc[n+]2CC1(O)c1ccc(Cl)cc1 (racemic) | 4.18 |
| CCCCCCCCN1c2nccc[n+]2CC1(O)c1ccc(Cl)c(Cl)c1 (stereo not drawn) | 4.94 |
| CCCCCCN1c2nccc[n+]2CC1(O)c1ccc([N+](=O)[O-])cc1.[Br-] (stereo not drawn) | 4.91 |
| CC(C)CN1c2nccc[n+]2CC1(O)c1ccc(Cl)cc1 (racemic) | 4.08 |
| CC(C)(C)N1c2nccc[n+]2CC1(O)c1ccc([N+](=O)[O-])cc1 (stereo not drawn) | 4.38 |

For each entry beneath this line, provide reported pIC50.
1. CCCCCCCCCN1c2nccc[n+]2CC1(O)c1ccccc1 (racemic)
2. CCCCN1c2nccc[n+]2CC1(O)c1ccc([N+](=O)[O-])cc1 (stereo not drawn)

[A]
1. 4.25
2. 3.84

* * *

test system: Pseudomonas aeruginosa PA14; experiment: Static peg assay for prevention of biofilm formation (Calgary device, crystal violet); type: cell-based; conditions: 37° C.; read-out: IC50 (biofilm formation)
Record form. Attribute: IC50. Fill in for each entry.
Write the quantity with the unit trailing the number.

| compound | result |
| --- | --- |
| OC1(c2ccc(I)cc2)C[n+]2cccnc2N1Cc1ccccc1.[Br-] (centres unmarked) | 175 µM |

Alright, here's another compound for you.
[Q] Fill blank: measured IC50 of the compound O=[N+]([O-])c1ccc(C2(O)C[n+]3cccnc3N2C2CCCCCCCCCCC2)cc1.[Br-] (centres unmarked) is ____.
[A] 18.2 µM

* * *

test system: S. Typhimurium ATCC14028; assay: Static peg assay for prevention of biofilm formation (Calgary device, crystal violet); type: cell-based, Salmonella Typhimurium; conditions: 25° C., Table 16; read-out: S. Typhimurium IC50 (biofilm formation)
Record form. Attribute: log10 IC50. Fill in for each entry.
Short version: log10 scale, IC50, µM.

Answered examples (4):
| molecule | measured.attribute | quantitative.readout |
| --- | --- | --- |
| CC(C)CN1c2nccc[n+]2CC1(O)c1ccc(Cl)c(Cl)c1 (centres unmarked) | log10 IC50 | 0.90 |
| CC(C)N1c2nccc[n+]2CC1(O)c1ccccc1 (racemic) | log10 IC50 | 2.73 |
| CCCCCCCCCCCCCN1c2nccc[n+]2CC1(O)c1ccccc1 (racemic) | log10 IC50 | 1.91 |
| CCCCN1c2nccc[n+]2CC1(O)c1ccccc1 (racemic) | log10 IC50 | 2.61 |

[Q] Fill blank: measured log10 IC50 of the molecule CCCCCCCCCCN1c2nccc[n+]2CC1(O)c1ccccc1 (racemic) is ____.
[A] 1.18

* * *

tested on: S. Typhimurium ATCC14028; experiment: Static peg assay for prevention of biofilm formation (Calgary device, crystal violet); format: cell-based, Salmonella Typhimurium; settings: 25° C.; strain not given; read-out: IC(50), preventive activity against S. typhimurium biofilms
measured.attribute: pIC50
Answers are plain numbers, as −log10 of the molar value.

Answered examples (6):
| smiles.structure | tested.system | pIC50 |
| --- | --- | --- |
| COc1ccc(-c2cn(CCNc3ncc(-c4ccc(Br)cc4)[nH]3)nn2)cc1 | S. Typhimurium ATCC14028 | 4.04 |
| CCCc1cn(CCNc2ncc(-c3ccc(Cl)c(Cl)c3)[nH]2)nn1 | S. Typhimurium ATCC14028 | 4.45 |
| Fc1ccc(-c2cnc(NCCn3cc(C4CC4)nn3)[nH]2)cc1 | S. Typhimurium ATCC14028 | 4.03 |
| c1ccc(-c2cn(CCNc3ncc(-c4ccccc4)[nH]3)nn2)cc1 | S. Typhimurium ATCC14028 | 4.44 |
| CC(C)(C)c1ccc(-c2cn(CCCNc3ncc(-c4ccc(Cl)c(Cl)c4)[nH]3)nn2)cc1 | S. Typhimurium ATCC14028 | 4.75 |
| Brc1ccc(-c2cnc(NCCn3cc(C4CC4)nn3)[nH]2)cc1 | S. Typhimurium ATCC14028 | 5.69 |

Alright, here's another compound for you.
[Q] Fill blank: measured pIC50 of the compound CC(C)(N)c1cn(CCCNc2ncc(-c3ccc(Br)cc3)[nH]2)nn1 is ____.
[A] 4.51

* * *

Record form. Attribute: IC50. Fill in for each entry.
test system: S. Typhimurium ATCC14028; assay: Static peg assay for prevention of biofilm formation (Calgary device, crystal violet); type: cell-based, Salmonella Typhimurium; conditions: Salmonella enterica; 25° C., Table 14; read-out: IC50 biofilm inhibition
Answers are plain numbers, in µM.

Answered examples (10):
| compound | tested.system | measured.attribute | quantitative.readout |
| --- | --- | --- | --- |
| COc1ccc(C2(O)C[n+]3cccnc3N2C2CCCCC2)cc1 (stereo not drawn) [R1=Cyclohexyl, R3=4-MeO—Ph, R4=H] | S. Typhimurium ATCC14028 | IC50 | 112 |
| OC1(c2ccc(Br)cc2)C[n+]2cccnc2N1C1CC1.[Br-] (stereo not drawn) [R1=Cyclopropyl, R3=4-Br—Ph, R4=H] | S. Typhimurium ATCC14028 | IC50 | 27 |
| CCCCN1c2nccc[n+]2CC1(O)C(c1ccccc1)c1ccccc1 (stereo not drawn) [R1=n-butyl, R3=dimethylphenyl, R4=H] | S. Typhimurium ATCC14028 | IC50 | 72.1 |
| OC1(c2ccc(-c3ccccc3)cc2)C[n+]2cccnc2N1C1CCCC1.[Br-] (stereo not drawn) [R1=Cyclopentyl, R3=4-biphenylyl, R4=H] | S. Typhimurium ATCC14028 | IC50 | 14.9 |
| COc1ccc(CCN2c3nccc[n+]3CC2(O)c2ccc([N+](=O)[O-])cc2)cc1OC (stereo not drawn) [R1=2-(3,4-diMeO—Ph)Et, R3=4-NO2-Ph, R4=H] | S. Typhimurium ATCC14028 | IC50 | 127 |
| CC1[n+]2cccnc2N(c2ccccc2)C1(O)c1ccc(Br)cc1 (stereo not drawn) [R1=Ph, R3=4-Br—Ph, R4=Me] | S. Typhimurium ATCC14028 | IC50 | 57.5 |
| COc1ccc(CN2c3nccc[n+]3CC2(O)c2ccc([N+](=O)[O-])cc2)cc1 (stereo not drawn) [R1=p-MeOBn, R3=4-NO2-Ph, R4=H] | S. Typhimurium ATCC14028 | IC50 | 220 |
| Cc1ccc(C2(O)C[n+]3cccnc3N2C(C)C)cc1 (stereo not drawn) [R1=Isopropyl, R3=4-Me—Ph, R4=H] | S. Typhimurium ATCC14028 | IC50 | 217 |
| CSc1ccc(C2(O)C[n+]3cccnc3N2C2CCCCC2)cc1 (stereo not drawn) [R1=Cyclohexyl, R3=4-MeS—Ph, R4=H] | S. Typhimurium ATCC14028 | IC50 | 118 |
| N#Cc1ccc(C2(O)C[n+]3cccnc3N2C2CCCCC2)cc1 (stereo not drawn) [R1=cyclohexyl, R3=4-CN—Ph, R4=H] | S. Typhimurium ATCC14028 | IC50 | 354 |

Alright, here's another compound for you.
[Q] Fill blank: measured IC50 of the compound CCCCCCN1c2nccc[n+]2C(C)C1(O)c1ccccc1 (stereo not drawn) [R1=Hexyl, R3=Ph, R4=Me] is ____.
[A] 218

* * *

Record form. Attribute: pIC50. Fill in for each entry.
tested on: S. Typhimurium ATCC14028; experiment: Static peg assay for prevention of biofilm formation (Calgary device, crystal violet); assay type: cell-based, Salmonella Typhimurium; conditions: 25° C., Table 16; read-out: S. Typhimurium IC50 (biofilm formation)
Give bare numbers, as −log10 of the molar value.

Answered examples (3):
| molecule | tested.system | measured.attribute | quantitative.readout |
| --- | --- | --- | --- |
| CCCCCN1c2nccc[n+]2CC1(O)c1ccc(Cl)cc1 (racemic) [Compound 18] | S. Typhimurium ATCC14028 | pIC50 | 4.49 |
| CCCCCCCCN1c2nccc[n+]2CC1(O)c1ccc(F)cc1 (centres unmarked) [Compound 39] | S. Typhimurium ATCC14028 | pIC50 | 5.12 |
| CCCCN1c2nccc[n+]2CC1(O)c1ccc(Br)cc1 (centres unmarked) [Compound 41] | S. Typhimurium ATCC14028 | pIC50 | 4.05 |

Alright, here's another molecule for you.
[Q] # query: pIC50 | item CC(C)CN1c2nccc[n+]2CC1(O)c1ccc(Cl)cc1 (racemic) [Compound 17] | system: S. Typhimurium ATCC14028
[A] 4.50
